# credit: the supplement of paper PMC10126150

# Tested on: ATP;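 note: ATP exposure 15 min at 22 °C before imaging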
# experiment description: switch fluorescence ratio, 500 uM ATP over buffer (Cy3 cluster intensity, sum of 5 cycles each) (fold (ratio)); higher = stronger signal-on switching upon ATP binding; sequences stand for … in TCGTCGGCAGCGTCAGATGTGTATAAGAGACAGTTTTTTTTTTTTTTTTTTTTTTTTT…TC
# assay context: aptamer strand: ATP DNA aptamer (quencher-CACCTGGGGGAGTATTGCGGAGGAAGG + anchor), 100 nM annealed; ATP concentration: 500 uM
measurement label: switch fluorescence ratio
Reply with the value as a number alone.

Study these solved cases before continuing.
In [3]: df
Out[3]:
   sequence_code  reported_value
0     CCTGTGCCCG            1.01
1     CACGGAGGGG           0.988
2     TAAGTTAGTA           0.979

Sure, the documented switch fluorescence ratio for TTGGGAAGGA is 1.02

Noted for CGGCATCGAA : its switch fluorescence ratio reads 0.985

switch fluorescence ratio recorded for this sequence, GTCGTTTGGG , is 0.991

The measured switch fluorescence ratio associated with CTTTCAGGCT reads 0.984

Entry under test: TTGGAGGGG . Its switch fluorescence ratio was 0.988

CTGTTCATGG has a reported switch fluorescence ratio of 1.02
